# experimental target: GPR139 (Homo sapiens)
# Sequence (Q6DWJ6 whole entry): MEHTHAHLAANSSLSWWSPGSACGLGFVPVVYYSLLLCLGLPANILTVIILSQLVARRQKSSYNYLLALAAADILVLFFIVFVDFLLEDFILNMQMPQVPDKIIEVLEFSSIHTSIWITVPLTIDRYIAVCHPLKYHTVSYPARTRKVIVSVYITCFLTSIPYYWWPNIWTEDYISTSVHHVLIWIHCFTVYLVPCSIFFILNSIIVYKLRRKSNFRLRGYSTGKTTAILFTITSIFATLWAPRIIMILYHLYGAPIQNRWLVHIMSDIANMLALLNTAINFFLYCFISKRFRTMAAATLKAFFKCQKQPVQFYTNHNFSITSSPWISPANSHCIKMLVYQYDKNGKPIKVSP
# test protocol: GPR139 Agonist titration / agonist counterscreen assay (calcium detection, HEK-GPR139 cells)
# Assay type: cell-based
# Design: expressed in transfected cells; host or cells: HEK Aequorin cells, Maxcyte transient transfection
# condition description: GPR139 Agonist Activity
API: label(entry) gives Yes if the entry's Lipophilic Efficiency (logP) is strictly smaller than 3; on equality or larger values it gives No.

Answered examples (4):
| molecule | experimental target | label value |
| --- | --- | --- |
| CCCCC(O)CCNC(=O)C1CC(=O)N(CCc2ccc(C)cc2)C1 (stereo not drawn) | GPR139 (Homo sapiens) | No |
| NC1=NC(=O)/C(=C\c2ccc(Cl)cc2Cl)S1 | GPR139 (Homo sapiens) | No |
| C=C(CC1C(=O)CC(c2ccccc2)(c2ccccc2)C1=O)C(C)CC1=CC=CC1 (stereo not drawn) | GPR139 (Homo sapiens) | Yes |
| Cc1onc(-c2ccccc2Cl)c1C(=O)N1CCC(Cn2ccnc2C)CC1 | GPR139 (Homo sapiens) | No |

Query: Lipophilic Efficiency (logP) strictly < 3 for this molecule? O=C(CCc1ccccc1)NNC(=O)C12CC3CC(CC(C3)C1)C2
Response: No

Query: Threshold test, Lipophilic Efficiency (logP) < 3: O=C(CN1CCCN(Cc2ccc(F)cc2Cl)C1=O)NC1CCCCC1
Response: No

Query: Given COc1ccc2c(c1)C[C@H](C(=O)Nc1ccc(-c3cn[nH]c3)cc1OCCN1CCCC1)NC2.O=C(O)C(F)(F)F.O=C(O)C(F)(F)F.O=C(O)C(F)(F)F , is recorded Lipophilic Efficiency (logP) strictly lower than 3?
Response: No

Query: A record lists Cc1cccc(-n2cnc3cc(C(=O)NCc4ccc5c(c4)OCO5)ccc32)c1 . Is its Lipophilic Efficiency (logP) below 3?
Response: Yes
